Neut IC50 (µg/ml) subtype A by entry:
biological target: RSV F protein of subtype A (strain A2) on recombinant mKate-RSV (Respiratory syncytial virus subtype A …, UniProt P03420 26-574); assay: cell-based or functional assay

- binder: "ADI-14533 (antibody, V domains shown) VH: QVQLVQSGAEVKKPGSSVIISCKASGGTFRNYGFTWVRQAPGQGLEWLGGIIPMFETVRYAQKFQGRVTITADENTNTAFLAVSSLRSEDTGVYFCARDLQTGIMSSVRSEYRGFMDPWGQGTLVTVSS VL: QSVLTQPPSVSGAPRQRVTISCSGSSSNIGTNAVNWYQQLPGKSPKVLIYYDELVPSGVSDRFSGSRSGTSASLAISGLRSEDEAYYYCAAWDDSLNGWVFGGGTQLTVL"
  result-units: "µg/mL"
  qualifier: ">"
  Neut IC50 (µg/ml) subtype A: 10
- binder: "ADI-14526 (antibody, V domains shown, IgG; also called Antibody Number 86) VH: EVQLVESGPGLVRPSQTLSIKCSVSGGSINRGAYFWTWIRQRPGKGLEWIGSIHDTGSYYNPSLKTRVSISGDTSKNLFTLELTSLTAADTAVYYCARGRGYSYGWRYFDSWGQGTLVTVSS VL: SYVLTQPPSVSVSPGQTARITCSGDAFPRQYSYWYQQKAGQPPVLVILKDSERPSGIPARFSGSTSGTTVTLTITGVQAEDEADYYCQSSDSSGNYVVFGGGTKLTVL"
  result-units: "µg/mL"
  qualifier: "="
  Neut IC50 (µg/ml) subtype A: 2.36
- binder: "ADI-14554 (antibody, V domains shown, IgG) VH: QVQLVQSGGGLVKPGGSLRLSCAASGFAFSNAWMSWVRQAPGKGLEWLGRIKSETDGGTTDYAAPVKGRFSISRDDSRNTLYLQMNSLESEDTAVYYCTTGPPYKYFDSTGYSVVDYWGQGTLVTVSS VL: SYELTQPPSASGTPGQRVTISCSGSSSNIGSNYVYWYQQLPGTAPRLLIYSTNQRPSGVPDRFSGSQSGTSASLAISGLRSDDEADYYCAAWDDRMSGPVFGGGTKLTVL"
  result-units: "µg/mL"
  qualifier: "="
  Neut IC50 (µg/ml) subtype A: 0.736
